assay: Hydrolysis stability test in homogeneous aqueous solution; type: physicochemical; conditions: pH 9; read-out: T1/2 (pH 9) (converted)
Listed below: half-life at 58.8 µg/mL values for each entry.
Numbers only; they are read as h.

// worked examples, half-life at 58.8 µg/mL included
{"columns": ["SMILES INPUT", "UNIT ANNOTATION", "half-life at 58.8 µg/mL"],
 "data": [
  ["CCN(C)C=Nc1cc(C)c(Oc2ccccc2F)cc1Br", "h", 51],
  ["CCN(C)C=Nc1cc(C)c(Oc2ccccc2F)cc1C(F)F", "h", 140],
  ["CCN(C)/C=N/c1cc(C)c(Oc2ccccc2F)cc1Cl", "h", 47],
  ["CCN(C)C=Nc1cc(C)c(Oc2ccccc2Cl)cc1Cl", "h", 47],
  ["CCN(C)C=Nc1cc(C)c(Oc2ccccc2Br)cc1Br", "h", 57]
]}

We next turn to a different compound, shown below.
Q: Given the compound `CCN(C)C=Nc1cc(C)c(Oc2ccccc2Cl)cc1Br` , what is its reported half-life at 58.8 µg/mL?
Result: 58

* * *

assay: Photolysis stability test; assay type: physicochemical
QUANTITY KIND: half-life at 25 µg/well (h)
Numbers only; they are read as h.

{"columns": ["COMPOUND", "half-life at 25 µg/well [h]"],
 "data": [
  ["CCN(C)C=Nc1cc(C)c(Oc2ccccc2F)cc1C(F)F [Example I-02]", 185]
]}

We next turn to a different compound, shown below.
Q: Given the compound CCN(C)C=Nc1cc(C)c(Oc2ccccc2F)cc1Br [Example I-03] , what is its reported half-life at 25 µg/well?
Result: 178

* * *

assay: Log P by HPLC on reversed phase columns (EEC directive 79/831 Annex V.A8); format: physicochemical; conditions: LC-UV, acidic range, 0.1% formic acid in water and acetonitrile as eluent, read-out: LogP [a]
QUANTITY KIND: chromatographic logP
// return a plain number; no unit text

// worked examples, chromatographic logP included
{"columns": ["MOLECULE", "QUANTITATIVE READOUT"],
 "data": [
  ["CCN(C)C=Nc1cc(C)c(Oc2ccccc2I)cc1Cl [Example I-06]", 1.78],
  ["Cc1cc([N+](=O)[O-])c(C(F)F)cc1Oc1ccccc1F [VI-02]", 3.97],
  ["CCN(C)/C=N/c1cc(C)c(Oc2ccccc2F)cc1Cl [Example I-01]", 1.66],
  ["CCN(C)C=Nc1cc(C)c(Oc2ccccc2F)cc1Br [Example I-03]", 1.66],
  ["CCN(C)C=Nc1cc(C)c(Oc2ccccc2Cl)cc1Cl [Example I-05]", 1.58]
]}

Q: Given the molecule CCN(C)C=Nc1cc(C)c(Oc2ccccc2F)cc1C(F)F [Example I-02] , what is its reported chromatographic logP?
Result: 1.76

Q: Given the molecule CCN(C)C=Nc1cc(C)c(Oc2ccccc2Cl)cc1Br [Example I-04] , what is its reported chromatographic logP?
Result: 1.84

Q: Given the molecule Cc1cc([N+](=O)[O-])c(Br)cc1Oc1ccccc1Cl [VI-04] , what is its reported chromatographic logP?
Result: 4.68

Q: Given the molecule CCN(C)C=Nc1cc(C)c(Oc2ccccc2Br)cc1Br [Example I-07] , what is its reported chromatographic logP?
Result: 1.81

* * *

assay: Hydrolysis stability test in homogeneous aqueous solution; assay type: physicochemical; settings: pH 7; read-out: T1/2 (pH 7) (converted)
QUANTITY KIND: half-life at 58.8 µg/mL (days)
Numbers only; they are read as days.

{"columns": ["SMILES INPUT", "half-life at 58.8 µg/mL (days)"],
 "data": [
  ["CCN(C)C=Nc1cc(C)c(Oc2ccccc2F)cc1C(F)F", 6.67],
  ["CCN(C)C=Nc1cc(C)c(Oc2ccccc2Br)cc1Br", 2.62],
  ["CCN(C)C=Nc1cc(C)c(Oc2ccccc2Cl)cc1Br", 2.67]
]}

Q: Given the molecule `CCN(C)C=Nc1cc(C)c(Oc2ccccc2F)cc1Br` , what is its reported half-life at 58.8 µg/mL?
Result: 2.83

Q: Given the molecule `CCN(C)C=Nc1cc(C)c(Oc2ccccc2Cl)cc1Cl` , what is its reported half-life at 58.8 µg/mL?
Result: 2.12

Q: Given the molecule `CCN(C)/C=N/c1cc(C)c(Oc2ccccc2F)cc1Cl` , what is its reported half-life at 58.8 µg/mL?
Result: 2.17

* * *

assay: Log P by HPLC on reversed phase columns (EEC directive 79/831 Annex V.A8); type: physicochemical; settings: LC-UV, neutral range, 0.001 molar ammonium acetate solution in water and acetonitrile as eluent, read-out: LogP [b]
QUANTITY KIND: chromatographic logP
// return a plain number; no unit text

{"columns": ["SMILES INPUT", "chromatographic logP"],
 "data": [
  ["CCN(C)C=Nc1cc(C)c(Oc2ccccc2F)cc1Br", 4.53],
  ["CCN(C)C=Nc1cc(C)c(Oc2ccccc2Cl)cc1Br", 4.97]
]}

Q: Given the molecule `Cc1cc(N)c(Br)cc1Oc1ccccc1Cl` , what is its reported chromatographic logP?
Result: 3.53
